The values you see were collected from paper PMC5915741.

# TEST SYSTEM: T1, 2b (Tomato aspermy virus (TAV), UniProt Q8UYT3 1-95)
# T1 sequence: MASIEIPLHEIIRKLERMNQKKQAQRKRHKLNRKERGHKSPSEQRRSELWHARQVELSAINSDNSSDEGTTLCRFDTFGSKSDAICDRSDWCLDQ
# PROCEDURE SUMMARY: EMSA
# STUDY CONDITIONS: protein: recombinant; tags: His-SUMO removed by SUMO protease; chain copies: 2; 2 nt 3' overhangs
ATTRIBUTE MEASURED: Kd (nM)
Please state the figure in nM; there is no need to write the unit.

Which value of Kd has been reported for gf698 siRNA (dsRNA, 5' phosphate on both strands) RNA 1: UAGUUCAUCCAUGCCAUGUGU RNA 2: ACAUGGCAUGGAUGAACUAUA in the records? 0.68
